Tested on: c-Src
Experiment: phosphorylation enrichment, bacterial display (enrichment ratio); higher = better substrate or ligand; peptides without Tyr show the background;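 note: 11-residue human phosphosite peptides and single-mutation variants displayed on the E. coli surface, counted by deep sequencing, each peptide's frequency after selection divided by its frequency in the unselected input library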;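 note: frequency after pTyr selection over input frequency; kinase dosed for 20-30% of maximal phosphorylation in three min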
ENDPOINT NAME: phosphorylation enrichment
Please give only the number in your answer, with no unit.

Specify measured phosphorylation enrichment for NHQFDYTFDWT [CSNK1A1_Y294_YF] .
1.22

Specify measured phosphorylation enrichment for YLAAIYPTVGQ [NF1_Y2508_T2507I] .
0.528

Specify measured phosphorylation enrichment for ELQGTYTSLQQ [KIF3C_Y574_R571Q] .
3.34

Specify measured phosphorylation enrichment for MKGEYYRYLAE [YWHAG_Y131_D129E] .
0.795

Specify measured phosphorylation enrichment for AFLQTYAHEVS [PCDHGA5_Y753_S754A] .
0.474

Specify measured phosphorylation enrichment for EFEGLYQEGGG [TMEM159_Y159] .
0.658

Specify measured phosphorylation enrichment for LTTEAYEWEPC [ELMOD3_Y61_R66C] .
5.66

Specify measured phosphorylation enrichment for DEEPPHRGPFC [SASH1_Y551_Y551H] .
0.475

Specify measured phosphorylation enrichment for SSSPTYLDLPF [GLI3_Y168_P169L] .
0.647

Specify measured phosphorylation enrichment for AEEEIYGIFGA [SRCtide_2014] .
4.49

Specify measured phosphorylation enrichment for PVDVAYRRGFF [PLEC_Y2967_YF] .
0.475

Specify measured phosphorylation enrichment for TAALWYIYLHT [ENG_Y612_S615L] .
0.566

Specify measured phosphorylation enrichment for QAFSWYQHQRA [NDST1_Y714_R709Q_YF] .
0.371

###

Molecular target: MERTK (UniProt Q12866)
Sequence (Q12866 whole entry, looked up): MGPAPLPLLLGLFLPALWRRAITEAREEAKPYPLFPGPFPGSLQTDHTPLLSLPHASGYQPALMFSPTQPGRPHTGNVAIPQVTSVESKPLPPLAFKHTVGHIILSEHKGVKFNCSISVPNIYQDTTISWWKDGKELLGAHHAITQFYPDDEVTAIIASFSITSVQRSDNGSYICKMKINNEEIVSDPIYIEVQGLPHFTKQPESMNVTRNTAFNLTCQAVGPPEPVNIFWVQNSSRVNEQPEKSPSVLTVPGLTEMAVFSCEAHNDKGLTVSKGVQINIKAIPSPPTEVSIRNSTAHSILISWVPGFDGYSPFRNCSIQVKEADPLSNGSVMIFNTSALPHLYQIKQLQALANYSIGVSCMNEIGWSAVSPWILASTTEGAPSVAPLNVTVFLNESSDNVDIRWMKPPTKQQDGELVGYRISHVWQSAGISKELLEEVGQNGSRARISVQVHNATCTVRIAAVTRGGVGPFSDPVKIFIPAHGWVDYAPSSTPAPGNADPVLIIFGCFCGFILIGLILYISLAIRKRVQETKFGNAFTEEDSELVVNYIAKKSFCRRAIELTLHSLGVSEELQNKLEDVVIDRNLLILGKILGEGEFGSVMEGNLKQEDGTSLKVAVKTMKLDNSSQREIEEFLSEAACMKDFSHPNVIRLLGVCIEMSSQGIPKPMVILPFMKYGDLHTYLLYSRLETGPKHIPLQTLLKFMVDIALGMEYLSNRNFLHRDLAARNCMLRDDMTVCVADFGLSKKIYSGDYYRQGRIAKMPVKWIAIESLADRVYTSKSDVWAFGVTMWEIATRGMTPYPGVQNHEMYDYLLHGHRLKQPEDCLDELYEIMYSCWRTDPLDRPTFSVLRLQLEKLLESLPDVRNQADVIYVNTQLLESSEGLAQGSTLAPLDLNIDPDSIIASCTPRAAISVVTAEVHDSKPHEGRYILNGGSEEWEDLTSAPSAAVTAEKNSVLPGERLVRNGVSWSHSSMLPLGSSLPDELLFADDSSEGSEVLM
Assay: phosphorylation enrichment, bacterial display (enrichment ratio); higher = better substrate or ligand; peptides without Tyr show the background
The threshold is inclusive: phosphorylation enrichment of exactly 0.5 counts as Fulfilled; values below receive Not fulfilled.

Hi, just wondering whether FADIAYNYHHG [PAH_Y166_R169H] shows phosphorylation enrichment of 0.5 or higher.
Not fulfilled

Hi, just wondering whether FGFPGYQCKHF [TIMP3_Y177_S179C_YF] shows phosphorylation enrichment of 0.5 or higher.
Fulfilled

Hi, just wondering whether AEDKPYAELWM [MPI_Y46] shows phosphorylation enrichment of 0.5 or higher.
Fulfilled

Hi, just wondering whether EFKKKYSDADI [CKAP5_Y1860_YF] shows phosphorylation enrichment of 0.5 or higher.
Not fulfilled

Hi, just wondering whether RIGRKCKKVRF [F8_Y442_Y442C] shows phosphorylation enrichment of 0.5 or higher.
Fulfilled

Hi, just wondering whether VLALWYFFLTH [ZDHHC23_Y127_YF] shows phosphorylation enrichment of 0.5 or higher.
Fulfilled

Hi, just wondering whether QDDYSYPSRQM [LDLR_Y847_G844D] shows phosphorylation enrichment of 0.5 or higher.
Fulfilled

Hi, just wondering whether ISGLKYPVSQQ [BTK_Y375_R372G] shows phosphorylation enrichment of 0.5 or higher.
Not fulfilled

Hi, just wondering whether KGSLPYSLILD [PKD1L2_Y406_N407S] shows phosphorylation enrichment of 0.5 or higher.
Fulfilled

Hi, just wondering whether ADARMYGVLLW [PLP1_Y207_P211L] shows phosphorylation enrichment of 0.5 or higher.
Fulfilled

Hi, just wondering whether PSNTDYPGPHS [TP63_Y171] shows phosphorylation enrichment of 0.5 or higher.
Fulfilled

Hi, just wondering whether YQKDVYNIPPS [NEDD9_Y177_D178N] shows phosphorylation enrichment of 0.5 or higher.
Fulfilled

Hi, just wondering whether SETSRYLSELF [KCNJ3_Y67_D70E] shows phosphorylation enrichment of 0.5 or higher.
Not fulfilled

Hi, just wondering whether ANFAKYGNPNE [BCHE_Y505] shows phosphorylation enrichment of 0.5 or higher.
Not fulfilled

Hi, just wondering whether EFEGLYQEGGG [TMEM159_Y159] shows phosphorylation enrichment of 0.5 or higher.
Not fulfilled

Hi, just wondering whether GSTLSYFGLAA [P2RX7_Y343] shows phosphorylation enrichment of 0.5 or higher.
Fulfilled

Hi, just wondering whether ILGRFYETSSI [PAX2_Y73_G76S_YF] shows phosphorylation enrichment of 0.5 or higher.
Not fulfilled

Hi, just wondering whether FSAGTYPRLEE [SYCN_Y108] shows phosphorylation enrichment of 0.5 or higher.
Not fulfilled

Hi, just wondering whether LNEVGYDDIGG [VCP_Y203] shows phosphorylation enrichment of 0.5 or higher.
Fulfilled

Hi, just wondering whether ETDTRYFDEEF [AKT1_Y437] shows phosphorylation enrichment of 0.5 or higher.
Fulfilled

Hi, just wondering whether RETLTYAQAQG [BRD1_Y33_R38G] shows phosphorylation enrichment of 0.5 or higher.
Not fulfilled

Hi, just wondering whether RPFFLYVAFHD [SGSH_Y174] shows phosphorylation enrichment of 0.5 or higher.
Not fulfilled

Hi, just wondering whether SLGSPYGQPPR [PDLIM4_Y137] shows phosphorylation enrichment of 0.5 or higher.
Not fulfilled

Hi, just wondering whether ISSLDYISKTK [VAV3_Y294] shows phosphorylation enrichment of 0.5 or higher.
Fulfilled

Hi, just wondering whether TVQIMYGCDVG [HLA-A_Y123_I119V] shows phosphorylation enrichment of 0.5 or higher.
Not fulfilled

Hi, just wondering whether GQECKYPPTQD [METAP2_Y137_E136K] shows phosphorylation enrichment of 0.5 or higher.
Fulfilled

Hi, just wondering whether PGRRFYVVACD [RNASE3_Y134] shows phosphorylation enrichment of 0.5 or higher.
Fulfilled

Hi, just wondering whether SIKHKYVTALY [KCNH2_Y611_D609H] shows phosphorylation enrichment of 0.5 or higher.
Not fulfilled

Hi, just wondering whether CCNHPYLINGA [CHD7_Y1256] shows phosphorylation enrichment of 0.5 or higher.
Not fulfilled

Hi, just wondering whether DLDTEYGSGYP [RNASEH2A_Y206_D205E] shows phosphorylation enrichment of 0.5 or higher.
Not fulfilled

Hi, just wondering whether VVQGIYGFHHH [UFSP2_Y285_Y290H_YF] shows phosphorylation enrichment of 0.5 or higher.
Fulfilled

Hi, just wondering whether RIILLYIFLKN [STXBP1_Y411] shows phosphorylation enrichment of 0.5 or higher.
Fulfilled

Hi, just wondering whether VLNDAYENLTR [SYNE2_Y3255] shows phosphorylation enrichment of 0.5 or higher.
Not fulfilled

Hi, just wondering whether TTSQPYRCLCS [USH2A_Y534] shows phosphorylation enrichment of 0.5 or higher.
Fulfilled

Hi, just wondering whether KELSNYKHLTL [SLIT2_Y776] shows phosphorylation enrichment of 0.5 or higher.
Not fulfilled

Hi, just wondering whether HVKHNYECLVY [XRCC5_Y416_I412V] shows phosphorylation enrichment of 0.5 or higher.
Fulfilled

Hi, just wondering whether PVGVLYKVKVF [PTS_Y128_YF] shows phosphorylation enrichment of 0.5 or higher.
Not fulfilled

Hi, just wondering whether NELTYYCCKKD [CD59_Y87] shows phosphorylation enrichment of 0.5 or higher.
Fulfilled

Hi, just wondering whether PYSEPYADYGG [APBA1_Y187] shows phosphorylation enrichment of 0.5 or higher.
Fulfilled

Hi, just wondering whether RSACTYLASHL [PLK3_Y615] shows phosphorylation enrichment of 0.5 or higher.
Not fulfilled

Hi, just wondering whether RRNTFYASIAK [ACADM_Y353_YF] shows phosphorylation enrichment of 0.5 or higher.
Not fulfilled

Hi, just wondering whether VVQGIYGFHHF [UFSP2_Y285_YF] shows phosphorylation enrichment of 0.5 or higher.
Fulfilled

Hi, just wondering whether AQADIYKANFQ [IKBKG_Y308_D311N] shows phosphorylation enrichment of 0.5 or higher.
Not fulfilled

Hi, just wondering whether RSLLQYGGSAN [ANK1_Y624] shows phosphorylation enrichment of 0.5 or higher.
Not fulfilled

Hi, just wondering whether TVLEPYTDPYY [ZC3H18_Y367_A368T] shows phosphorylation enrichment of 0.5 or higher.
Fulfilled

Hi, just wondering whether VNYGAYINDFK [GLB1_Y488] shows phosphorylation enrichment of 0.5 or higher.
Not fulfilled

Hi, just wondering whether KNNDGYIDFAE [MCFD2_Y135_YF] shows phosphorylation enrichment of 0.5 or higher.
Not fulfilled

Hi, just wondering whether ALAHKCHGGGG [HBB_Y146_Y146C] shows phosphorylation enrichment of 0.5 or higher.
Not fulfilled

Hi, just wondering whether DENWFYMRAAS [RPS19_Y54_T55M] shows phosphorylation enrichment of 0.5 or higher.
Not fulfilled

Hi, just wondering whether VGSIKYLKREW [KCNMA1_Y885_E884K] shows phosphorylation enrichment of 0.5 or higher.
Not fulfilled

Hi, just wondering whether TEQDPSNNIVR [MMUT_Y364_Y364S] shows phosphorylation enrichment of 0.5 or higher.
Not fulfilled

Hi, just wondering whether PELINYQQHNS [BTK_Y361_H362Q] shows phosphorylation enrichment of 0.5 or higher.
Fulfilled

Hi, just wondering whether IDSTPYRQWYE [RPS8_Y109] shows phosphorylation enrichment of 0.5 or higher.
Not fulfilled
